target: MLKL (Homo sapiens, UniProt Q8NB16); assay: MLKL degradation assay in HepG2 cell line (western blot); assay type: cell-based; design: endogenous in cells; host or cells: HepG2 or HaCaT; conditions: compound 1 μM; cell line not given
Sequence (Q8NB16 whole entry): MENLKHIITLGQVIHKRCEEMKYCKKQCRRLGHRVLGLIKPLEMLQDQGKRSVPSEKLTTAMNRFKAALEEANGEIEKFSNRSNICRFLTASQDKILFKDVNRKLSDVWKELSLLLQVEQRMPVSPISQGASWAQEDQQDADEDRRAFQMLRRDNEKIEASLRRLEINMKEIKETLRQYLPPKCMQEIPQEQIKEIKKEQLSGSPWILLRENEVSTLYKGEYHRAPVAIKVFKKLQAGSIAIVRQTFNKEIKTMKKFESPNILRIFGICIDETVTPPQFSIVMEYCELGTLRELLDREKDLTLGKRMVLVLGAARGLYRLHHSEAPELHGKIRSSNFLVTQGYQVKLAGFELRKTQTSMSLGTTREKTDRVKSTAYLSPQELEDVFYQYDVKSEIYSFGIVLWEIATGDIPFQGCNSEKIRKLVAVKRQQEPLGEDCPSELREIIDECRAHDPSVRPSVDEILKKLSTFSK
experimental_endpoint: Degradation assay (Degradation %) 1 μM

P: Nc1ncc(-c2cnn(C3CCN(CC4CCN(CC(=O)N5CCN(c6cccc7c6C(=O)N(C6CCC(=O)NC6=O)C7=O)CC5)CC4)CC3)c2)nc1C(=O)OC(C(=O)Nc1ccc(F)cc1)c1ccccc1 (centres unmarked)
Q: Nc1ncc(-c2cnn(C3CCN(C(=O)CCC4CCN(C(=O)CNc5ccc6nnn(C7CCC(=O)NC7=O)c(=O)c6c5)CC4)CC3)c2)nc1C(=O)O[C@@H](C(=O)Nc1ccc(F)cc1)c1ccccc1 (some centres unmarked)
Look at P and Q . Which one has the lower recorded Degradation assay (Degradation %) 1 μM number? Which one? Tell me its label.
P
